Assay: Toxicity liver stage against HepG2, at 10uM
Type: cell-based
Set-up: test concentration 10 uM, cell line HepG2-A16-CD81EGFP
Settings: human, HepG2-A16-CD81EGFP cells; read-out: INHIBITION
The following compounds are shown together with reported cytotoxicity at 10 µM values.
Numeric only. Scale: %

>>> print(df.to_string())
                                  compound  valuemeasured
0  O=C(c1n[nH]c2c1CCN(Cc1nccs1)C2)N1CCOCC1           -144

**Q:** Look at this compound and give its reported cytotoxicity at 10 µM. CC(C)c1nnc2n1CCN(C(=O)c1ccc(S(C)(=O)=O)cc1)C2
**A:** -0.252

**Q:** Can you check CCN(CC)C(=O)N1CCN(C2=NCC(C)S2)CC1 (stereo not drawn) next?
**A:** -148

**Q:** Can you check COc1ccc2c(ccn2CC(=O)Nc2n[nH]c(CC(C)C)n2)c1 next?
**A:** -6.19

**Q:** Can you check CCc1noc(C2CCCCN2C(=O)c2ccc3c(c2)OCO3)n1 (stereo not drawn) next?
**A:** 1.75

**Q:** Can you check CCNc1ncc(C(=O)NC2CCC(n3cnnc3)CC2)cn1 (stereo not drawn) next?
**A:** 9.45

**Q:** Can you check COCCn1nc(C(=O)N2CCCC2c2cccc(F)c2)ccc1=O (stereo not drawn) next?
**A:** -5.5

**Q:** Can you check CN1CCC2(CC1)C(=O)N(C)c1ccc(F)cc12 next?
**A:** -115

**Q:** Can you check CCN1CCCN(C(=O)c2cnc(OC(C)C)c(Cl)c2)CC1 next?
**A:** -14.4

**Q:** Can you check C[C@@H](NC(=O)c1cccnc1)c1onc(-c2ccccc2)c1C(=O)O next?
**A:** 10.1
